Tested on: SF-268 CNS
experimentalProtocol: NCI-60 one-dose screen, 48 h (100 = growth as untreated, 0 = no growth, -100 = all killed)
particulars: 10 µM unless noted
The panel holds about 83,000 compounds, 20% with a hit somewhere; the sample as a whole holds those more often.
Rule for this label: Y means growth is less than 80%; N means growth is at least 80%.

Here are 6 compounds together with their reported answers.
CCCCN(CCCC)Cc1c(C)[nH]c2cc(OC)ccc2c1=O; N
Clc1cccc(Nc2nc(Nc3cnc4ccccc4c3)c3[nH]cnc3n2)c1; N
O=C1/C(=C/c2ccc(F)cc2)CN(C(=O)CCN2CCC(=NO)CC2)C/C1=C\c1ccc(F)cc1; Y
COc1ccc(S(=O)(=O)NCCCNc2cc(-c3c(-c4cccc(OC)c4)nc4sccn34)ccn2)cc1; Y
COC(=O)[C@H](C(C)C)n1c(=O)c2cc(OC)c(OC)cc2c2cnc3[nH]ccc3c21; Y
C/C(=C(/c1ccc(O)cc1)c1ccc(OCCN2CCCC2)cc1)c1ccccc1; Y

In: Given COCCOC(=O)C1=C(C)NC(=S)NC1c1ccc2c(c1)OCO2 (configuration not stated) , is recorded growth strictly lower than 80%?
Out: N

###

Tested on: ACHN renal
experimentalProtocol: NCI-60 one-dose screen, 48 h
particulars: 10 µM unless noted
This is part of a sample that, as a whole, favours compounds with a hit. Of some 83,000 tested, about 20% had one in any assay. The source made the active and inactive calls. How the source made its calls: active means growth percent below 10; inactive means the rest.
Parameter call: string, one of t (active), f (inactive)

For orientation, consider the following solved cases.
COc1ccc(Cl)cc1Nc1nc(C(F)(F)F)ccc1C(=O)N/N=C/c1cccnc1; f
CNCc1cccc2c1OCCOCCOCCN(C)S(=O)(=O)c1ccc(cc1)-c1cnc(N)c(n1)C(=O)N2; f
O=C(Nc1cccc2c1C(=O)c1cccc(Nc3cccc4c3C(=O)c3cccc(NC(=O)c5ccccc5)c3C4=O)c1C2=O)c1ccccc1; f

In: For this molecule, state the assay outcome: CCN(CC)CCCC(C)Nc1ccnc2c(OC)cccc12 (stereo not drawn)
Out: f

In: For COc1ccccc1/C=C(/C(=O)c1ccccc1)c1ccccc1 , what call appears in the results of this test?
Out: f

In: # fetch the recorded call for COc1ccc(C(=O)c2sc3nc4c(cc3c2N)CCCC4)cc1OC here
Out: f

In: Identify the outcome logged in this assay for the molecule shown: O=c1cc(-c2ccccc2)[nH]c2ccccc12
Out: f

In: Recorded test outcome, item Cc1nc2nc(N)nc(N)c2nc1C
Out: f

In: Please let me know the test result on file for CC1=C(C)C(=O)OC([C@](C)(O)[C@]2(O)CC[C@@]3(O)[C@@H]4C[C@H]5O[C@]56CC=CC(=O)[C@]6(C)[C@H]4CC[C@]23COC(=O)c2ccc(C)o2)C1 (stereo partly drawn) .
Out: t

###

Test system: OVCAR-3 ovarian
experimentalProtocol: NCI-60 one-dose screen, 48 h (100 = growth as untreated, 0 = no growth, -100 = all killed)
particulars: 10 µM unless noted
About 83,000 compounds went through this panel and 20% of them were active in at least one assay; those are over-represented in the sample as a whole. Activity calls are given as the source filed them. How the source made its calls: active means growth percent below 10; inactive means the rest.
metricName: growth

CCN(CC)CC#CCOC(=O)[C@]1(C)CCC[C@@]2(C)[C@H]1CC(C=O)=C1C=C(C(C)C)CC[C@@H]12; 69.1% (inactive)
CCOC(=O)N1CCN(c2nc(Nc3cc(C)[nH]n3)c3ccccc3n2)CC1; 55.3% (inactive)
COc1ccc(-c2cnoc2-c2cc(OC)c3c(c2)OCCO3)cc1; -18.6% (active)
N=c1c2ccccc2nc2n1CCCCC2; 116% (inactive)
O=C(Nc1cccc2c1C(=O)c1cccc(Nc3cccc4c3C(=O)c3cccc(NC(=O)c5ccccc5)c3C4=O)c1C2=O)c1ccccc1; 123% (inactive)

Now for another entry.
In: Requested field: growth. Item: CC/C(Cc1ccccc1)=C(/c1ccc(O)cc1)c1ccc(OCCN2CCCC2)cc1
Out: -79.6% (active)

###

Measured growth accompanies every entry in the list below.
Test system: COLO 205 colon
experimentalProtocol: NCI-60 one-dose screen, 48 h (100 = growth as untreated, 0 = no growth, -100 = all killed)
particulars: 10 µM unless noted
This is part of a sample that, as a whole, favours compounds with a hit. Of some 83,000 tested, about 20% had one in any assay.
Please reply with the bare figure in % and do not write the unit itself.

CCN(CC)CCCNc1cccc2c(SCc3ccccc3)ccnc12; 106

In: Quick one: growth for CCN(CC)CCCCNc1ccc(NCCCCN(CC)CC)c2c1C(=O)c1ccccc1C2=O ?
Out: 76.1

In: Would you kindly share the measured growth for N#Cc1ccc(NC(=O)Nc2ccc(Cc3ccc(NC(=O)Nc4ccc(C#N)cc4)cc3)cc2)cc1 ?
Out: 29.5

In: Sample NC(=S)N/N=C/c1ccc(OCc2ccccc2)cc1 — what was its growth?
Out: 56.9

###

System: COLO 205 colon
experimentalProtocol: NCI-60 one-dose screen, 48 h
particulars: 10 µM unless noted
Protocol: Cells are grown in 96 well plates and exposed to the test compound for 48 hours. Compounds are tested at a single concentration, which is 10^-5 M for most compounds. The reported endpoint is percent growth (GI% or GIPRCNT), where numbers from 0 - 100% represent growth inhibition, and numbers from -100% - 0 represent cell death. For example, a value of 40 represents 60% growth inhibition. A value of 0 means no net growth occurred over the course of the experiment. […]
Compounds without any hit were thinned out: in the full panel of roughly 83,000, 20% have a hit. Active and inactive are the calls of the source. The calls were made as follows: active = growth percent below 10; inactive = the rest.
Choose the fitting class; nothing outside active, inactive is accepted.

CCc1ccc(C(c2ccc(CC)cc2)C(Cl)(Cl)CCl)cc1; inactive

In: How was C=C(C[n+]1ccccc1)[C@@H]1CC[C@]2(C(=O)OC)CC[C@]3(C)[C@H](CC[C@@H]4[C@@]5(C)CC[C@H](O)C(C)(C)[C@@H]5CC[C@]43C)[C@@H]12 classified in this test?
Out: inactive

In: State the result this test recorded for O=C(Nc1ccc(F)cc1)Nc1ccc(CCO)cc1 .
Out: inactive

In: Give the logged outcome of this assay for the following compound: CCOC(=O)c1cnc2ccc(OC)cc2c1Nc1cccc(S(=O)(=O)NC)c1
Out: inactive

In: What did the test return for COc1ncc(-c2ccc3ncnc(Nc4cccc(Cl)c4)c3c2)cc1NS(C)(=O)=O ?
Out: inactive

In: Which outcome did this test record for the compound CCOC(=O)c1cnc2cc(Cl)c(F)cc2c1Nc1cccc(NS(C)(=O)=O)c1 ?
Out: inactive

In: Hey, what did the test say about CCOC(=O)/C=C/c1ccc(C(=O)OCC)[nH]1 ?
Out: inactive

In: Query: recorded result category for O=c1c2cccc3c(Nc4ccccn4)ccc(c32)c2nc3ccccc3n12 in this test
Out: inactive

In: Short answer needed: outcome of this test for O=C1Nc2ccc(Br)cc2C12CC(c1ccccc1)=NN2 (stereo not given) ?
Out: inactive

In: What is the recorded call for this compound in the test? c1ccc2sc(SCCCn3ccnc3)nc2c1
Out: inactive

###

Test system: BT-549 breast
experimentalProtocol: NCI-60 one-dose screen, 48 h (100 = growth as untreated, 0 = no growth, -100 = all killed)
particulars: 10 µM unless noted
The panel holds about 83,000 compounds, 20% with a hit somewhere; the sample as a whole holds those more often.
Measured growth, listed per entry for reference.
Field format: number, assumed %, no unit text.

Worked cases, answers included:
COc1ccc(/C(=C/c2ccc3ccccc3c2)c2nn[nH]n2)cc1OC; 40.3
CCCCCCCCSC1=CC(=O)C(OC)=C(OC)C1=O; 68.8
O=C1/C(=C/c2ccc(Cl)c(Cl)c2)CN(C(=O)CCN2CCC(=NO)CC2)C/C1=C\c1ccc(Cl)c(Cl)c1; -87.9
COc1ccc(C(=O)COc2ccc(/C=C3\Oc4ccc(Cl)cc4C3=O)cc2)cc1; 98.1
Cn1cc(-c2csc(-c3cn(C)c4ncccc34)n2)c2ccccc21; 22
COc1ccc(/C=C2\N=C3Sc4cc(Cl)ccc4C(=O)N3C2=O)cc1; 114
S=c1[nH]nc(CSc2ncnc3c2c(-c2ccccc2)cn3-c2ccc(Cl)cc2)o1; 107
N=S(=O)(NC(=O)c1ccc(Cl)cc1Cl)c1ccc(Br)s1 (stereo not drawn); 99.5

In: What does the record list as growth for Cc1cc(N/N=C/c2nc(-c3ccc(Cl)cc3)oc2C)c2cc(Cl)ccc2n1 ?
Out: 91.2

In: Would you kindly share the measured growth for CCCCCC(=O)N(CCCC)CCCC ?
Out: 102

In: # lookup: growth of COc1ccc(C(=O)c2sc3nc4c(c(C(F)(F)F)c3c2N)CN(C(C)=O)CC4)cc1OC
Out: 99.6

In: Endpoint output: growth of Cc1sc2nc3[nH]/c(=C\c4ccc(Cl)cc4)c(=O)n3c(=O)c2c1C . Value?
Out: 105

In: Please report the recorded growth for OC(c1cccc(C(F)(F)F)c1)c1cnccc1NC1CCCCCC1 (stereo not drawn) .
Out: 71.4

In: Recorded growth for CC(C)[C@@H]1CC[C@]2(C(=O)NCCCCN=C(N)N)CC[C@]3(C)[C@H](CC[C@@H]4[C@@]5(C)CCC(=O)C(C)(C)[C@@H]5CC[C@]43C)[C@@H]12 , please?
Out: 90.5

In: Endpoint output: growth of COc1cc(C2CC(=O)Nc3c2c(C)nn3-c2nc3ccccc3[nH]2)cc(OC)c1OC (stereo not drawn) . Value?
Out: 113

In: Requested field: growth. Item: Nc1cc(O)cc2cccnc12
Out: 87

In: Item under review: O=C(Cn1cc(CN2C(=O)c3ccccc3S2(=O)=O)nn1)Nc1ccc([N+](=O)[O-])cc1Cl . Reported growth?
Out: 103

In: Please give the measured growth for this compound: CCCCCCCCCCCCCC1=NCCN1CCO
Out: 123

In: GET /values?readout=growth&item= Cn1cc(-c2nc(-c3c[nH]c4ccccc34)cs2)c2cccnc21
Out: 7.05

In: So what does the record say about growth for C/C(=C(/c1ccc(O)cc1)c1ccc(OCCN(C)C)cc1)c1ccccc1 ?
Out: 92.4

In: If you can, please state the reported growth value of O=C(O)c1ccc(=O)[nH]n1 .
Out: 106

In: Which growth is listed for CCOC(=O)c1cnc2ccc(OC)cc2c1Nc1cccc(S(=O)(=O)NC)c1 ?
Out: 80.1

In: // lookup growth for COc1ccc(S(=O)(=O)NCCNc2nccc(-c3c(-c4cccc([N+](=O)[O-])c4)nc4sccn34)n2)cc1
Out: 72.1

Where these numbers come from: PubChem BioAssay (NCI)
